System: genotype 3a (S52) wild type transient HCV replicon in Huh-7-derived cells
Experiment: Transient-transfected HCV replicon EC50, genotype 3a wild type
Format: cell-based, hepatitis C virus
Settings: Hepatitis C virus; transient-transfected replicon genotype 3a wild type, 72 h; read-out: EC50 3A WT
OBSERVABLE: EC50 (µM)
Kindly answer with a numeric value in µM, unit omitted.

C[C@@H]1[C@@H]2CN(C(=O)[C@H](C(C)(C)C)NC(=O)O[C@@H]3C[C@@H]4C[C@@H]4[C@H]3CCCCC(F)(F)c3nc4ccccc4nc3O2)[C@@H]1C(=O)N[C@]1(C(=O)NS(=O)(=O)C2(C)CC2)C[C@H]1C(F)F [Example 82]	0.016

API: the following record is the query input.
Prompt line: Determine from records and report EC50 for CC[C@@H]1[C@@H]2CN(C(=O)[C@H](C(C)(C)C)NC(=O)O[C@@H]3C[C@H]3CCCCC(F)(F)c3nc4ccc(OC(F)F)cc4nc3O2)[C@@H]1C(=O)N[C@]1(C(=O)NS(=O)(=O)C2(C)CC2)C[C@H]1C(F)F [Example 85]
Response line: 0.101
